# Measured target: HDM2 (Homo sapiens)
# Construct: Thioredoxin (N); made in house; host or cells: E. coli strain BL21(DE3)Rosetta
# Assay remarks: HDM2 FRET assay (inhibition of binding of FITC labeled p53-pocket peptide to HDM2)
# Test context: 0.5 nM HDM2 (residues 17 to 125), 3nM peptide, two hour incubation at room temperature; read-out: FRET IC50
pIC50: −log10 of the molar value.
Metric name: pIC50

[
  {
    "Molecule": "C[C@@H](Nc1nc(C(C)(C)O)nc2nc(N3CCOC[C@H]3c3ccccc3)n(C[C@H]3CC[C@H](C)CC3)c12)C1CCC1",
    "Metric name": "pIC50",
    "Endpoint value": 6.97
  },
  {
    "Molecule": "CC(=O)c1nc(N[C@H](C)C2CCC2)c2c(n1)nc(N1CCOC[C@H]1c1ccccc1)n2C[C@H]1CC[C@H](C)CC1 [Example 12.23]",
    "Metric name": "pIC50",
    "Endpoint value": 7.27
  },
  {
    "Molecule": "C[C@@H]1[C@@H](C)OCCN1c1nc2nc(-c3noc(=O)[nH]3)nc(-c3cncc(Cl)c3)c2n1C[C@H]1CC[C@H](C)CC1",
    "Metric name": "pIC50",
    "Endpoint value": 8.14
  },
  {
    "Molecule": "CC1CN(C)CCN1c1nc2nc(-c3noc(=O)[nH]3)nc(-c3cccc(Cl)c3)c2n1C[C@H]1CC[C@H](C)CC1 (relative stereo)",
    "Metric name": "pIC50",
    "Endpoint value": 7.37
  },
  {
    "Molecule": "CCOc1cc(C(C)C)cc(-c2nc3nc(C(=O)O)nc(N[C@H](C)C4CCC4)c3n2C[C@H]2CC[C@H](C)CC2)n1",
    "Metric name": "pIC50",
    "Endpoint value": 8.35
  },
  {
    "Molecule": "C[C@H]1CC[C@H](Cn2c(N3CCOC[C@H]3c3ccccc3)nc3nc(-c4n[nH]c(=O)o4)nc(C4CCOCC4)c32)CC1",
    "Metric name": "pIC50",
    "Endpoint value": 7.17
  }
]

* * *

# Measured target: HDM2 (Homo sapiens)
# Construct: Thioredoxin (N); made in house; host or cells: E. coli strain BL21(DE3)Rosetta
# Assay remarks: HDM2 FRET assay (inhibition of binding of FITC labeled p53-pocket peptide to HDM2)
# Test context: Table 10; read-out: FRET IC50

[
  {
    "Compound": "C[C@@H](Nc1nc(C(=O)O)nc2nc(C(=O)NC3CCCCC3)n(Cc3ccc(C(F)(F)F)cc3)c12)C1CCC1",
    "Measured target": "HDM2 (Homo sapiens)",
    "IC50 [nM]": 68
  },
  {
    "Compound": "CCN1CCC(C)CC1c1nc2nc(C(=O)O)nc(N[C@H](C)C3CCC3)c2n1C[C@H]1CC[C@H](C)CC1 (stereo partly drawn)",
    "Measured target": "HDM2 (Homo sapiens)",
    "IC50 [nM]": 5.98
  },
  {
    "Compound": "C=CCN(c1nc(C(=O)O)nc2nc(N[C@@H](C)c3cccc(F)c3)n(Cc3ccc(C(F)(F)F)cc3)c12)[C@H](C)C1CCC1",
    "Measured target": "HDM2 (Homo sapiens)",
    "IC50 [nM]": 22.2
  },
  {
    "Compound": "C[C@@H](Nc1nc(C(=O)O)nc2nc(C3CCCCN3C)n(Cc3ccc(C(F)(F)F)cc3)c12)C1CCC1 (stereo partly drawn)",
    "Measured target": "HDM2 (Homo sapiens)",
    "IC50 [nM]": 48
  },
  {
    "Compound": "C=CCN(c1nc2nc(C(=O)O)nc(N[C@H](C)C3CCC3)c2n1Cc1ccc(C(F)(F)F)cc1)[C@@H](C)c1cccc(F)c1",
    "Measured target": "HDM2 (Homo sapiens)",
    "IC50 [nM]": 9.84
  },
  {
    "Compound": "CC1CCN(C)C(c2nc3nc(C(=O)O)nc(N[C@H](C)C4CCC4)c3n2C[C@H]2CC[C@H](C)CC2)C1 (stereo partly drawn)",
    "Measured target": "HDM2 (Homo sapiens)",
    "IC50 [nM]": 17.7
  }
]

* * *

# Measured target: HDM2 (Homo sapiens)
# Construct: Thioredoxin (N); made in house; host or cells: E. coli strain BL21(DE3)Rosetta
# Assay remarks: HDM2 FRET assay (inhibition of binding of FITC labeled p53-pocket peptide to HDM2)
# Test context: 0.5 nM HDM2 (residues 17 to 125), 3nM peptide, two hour incubation at room temperature; read-out: FRET IC50
pIC50: −log10 of the molar value.
pIC50 listing for selected compounds.

[
  {
    "Compound": "Cc1cccc(-c2nc3nc(C(=O)O)nc(OCC4CC4)c3n2Cc2ccc(C(F)(F)F)cc2)c1 [Example 17.2]",
    "pIC50": 6.09
  },
  {
    "Compound": "CC(C)(O)c1ccnc(-c2nc3nc(-c4noc(=O)[nH]4)nc(-c4cccc(Cl)c4)c3n2C[C@H]2CC[C@H](C)CC2)c1 [Example 16.36]",
    "pIC50": 7.58
  },
  {
    "Compound": "COc1ncc(Cl)cc1-c1nc(-c2noc(=O)[nH]2)nc2nc(N3CCOC[C@H]3c3ccccc3)n(C[C@H]3CC[C@H](C)CC3)c12 [Example 16.156]",
    "pIC50": 9.07
  }
]

* * *

# Measured target: HDM2 (Homo sapiens)
# Construct: Thioredoxin (N); made in house; host or cells: E. coli strain BL21(DE3)Rosetta
# Assay remarks: HDM2 FRET assay (inhibition of binding of FITC labeled p53-pocket peptide to HDM2)
# Test context: Table 9; read-out: FRET IC50
Metric name: IC50 (µM)

[
  {
    "Compound": "CC1CN(c2nc3nc(C(=O)O)nc(N[C@H](C)C4CCC4)c3n2Cc2ccc(C(F)(F)F)cc2)CCO1 (some centres unmarked)",
    "Endpoint value": 0.0631
  },
  {
    "Compound": "C[C@@H](Nc1nc(C(=O)O)nc2nc(N3CCOC[C@@H]3C)n(Cc3ccc(Cl)cc3)c12)C1CC1",
    "Endpoint value": 0.143
  },
  {
    "Compound": "COCC1(N(C)c2nc3nc(-c4noc(=O)[nH]4)nc(N[C@H](C)C4CCC4)c3n2Cc2ccc(C(F)(F)F)cc2)CC1",
    "Endpoint value": 0.0226
  },
  {
    "Compound": "CC(C)CC(=O)Nc1nc2nc(C(=O)O)nc(N[C@H](C)C3CCC3)c2n1Cc1ccc(C(F)(F)F)cc1",
    "Endpoint value": 0.324
  },
  {
    "Compound": "COCC1CCCCN1c1nc2nc(-c3noc(=O)[nH]3)nc(N[C@H](C)C3CCC3)c2n1Cc1ccc(C(F)(F)F)cc1 (some centres unmarked)",
    "Endpoint value": 0.00878
  },
  {
    "Compound": "C[C@@H](Nc1nc(C(=O)O)nc2nc(N[C@@H](CO)c3ccccc3)n(Cc3ccc(C(F)(F)F)cc3)c12)C1CCC1",
    "Endpoint value": 0.00147
  },
  {
    "Compound": "C[C@@H](Nc1nc(C(=O)O)nc2nc(NC3CCCCC3)n(Cc3ccc(C(F)(F)F)cc3)c12)C1CCC1",
    "Endpoint value": 0.00765
  },
  {
    "Compound": "Cc1cc(C)n(-c2nc3nc(C(=O)O)nc(N[C@H](C)C4CCC4)c3n2Cc2ccc(C(F)(F)F)cc2)n1",
    "Endpoint value": 0.292
  }
]

* * *

pIC50 listing for selected compounds.
# Measured target: HDM2 (Homo sapiens, UniProt Q00987)
# Construct: Thioredoxin (N); made in house; host or cells: E. coli strain BL21(DE3)Rosetta
# Sequence (Q00987 17-125): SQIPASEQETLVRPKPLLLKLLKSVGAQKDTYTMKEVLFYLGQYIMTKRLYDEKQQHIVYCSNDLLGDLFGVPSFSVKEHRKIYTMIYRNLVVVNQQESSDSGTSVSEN
# Assay remarks: HDM2 FRET assay (inhibition of binding of FITC labeled p53-pocket peptide to HDM2)
# Test context: Table 11; read-out: FRET IC50
pIC50: −log10 of the molar value.

[
  {
    "Compound": "C[C@@H](Nc1nc(-c2n[nH]c(=O)o2)nc2nc(N3CCO[C@H](C)[C@@H]3C)n(C[C@H]3CC[C@H](C)CC3)c12)C1CCC1 (single isomer, unassigned) [Example 11.158]",
    "Measured target": "HDM2 (Homo sapiens, UniProt Q00987)",
    "pIC50": 7.89
  },
  {
    "Compound": "C[C@@H](Nc1nc(-c2n[nH]c(=O)o2)nc2nc(N3CCOC4CCCC43)n(C[C@H]3CC[C@H](C)CC3)c12)C1CCC1 (single isomer, unassigned) [Example 11.141]",
    "Measured target": "HDM2 (Homo sapiens, UniProt Q00987)",
    "pIC50": 9.08
  },
  {
    "Compound": "C[C@@H](Nc1nc(-c2noc(=O)[nH]2)nc2nc(-n3ccnc3)n(C[C@H]3CC[C@H](C)CC3)c12)C1CCC1 [Example 11.57]",
    "Measured target": "HDM2 (Homo sapiens, UniProt Q00987)",
    "pIC50": 7.78
  },
  {
    "Compound": "CC1CCCN(c2nc3nc(C(=O)O)nc(N[C@H](C)C4CCC4)c3n2C[C@H]2CC[C@H](C)CC2)C1C (stereo partly drawn) [Example 11.1]",
    "Measured target": "HDM2 (Homo sapiens, UniProt Q00987)",
    "pIC50": 8.34
  },
  {
    "Compound": "C[C@@H](Nc1nc(-c2noc(=O)[nH]2)nc2nc(N3CCOCC3c3ccc(Cl)cc3)n(C[C@H]3CC[C@H](C)CC3)c12)C1CCC1 (stereo partly drawn) [Example 11.119]",
    "Measured target": "HDM2 (Homo sapiens, UniProt Q00987)",
    "pIC50": 7.61
  },
  {
    "Compound": "C[C@@H](Nc1nc(-c2noc(=O)[nH]2)nc2nc(N3CCOCC(F)(F)C3)n(C[C@H]3CC[C@H](C)CC3)c12)C1CCC1 [Example 11.104]",
    "Measured target": "HDM2 (Homo sapiens, UniProt Q00987)",
    "pIC50": 8.03
  }
]
